Reference source: ChEMBL document CHEMBL1687913

The entries below come with measured hemolysis at 40 min, 12 µM values attached.
Experiment: Toxicity in human erythrocytes assessed as hemolysis at 12 uM after 40 mins
Assay type: cell-based, Erythrocyte
Settings: read-out: Activity
Where a SMILES comes first, the peptide text is derived from it.
Number only, in %; omit the unit.

A selection of reference data follows.
COMPOUND | UNIT_STRING | hemolysis at 40 min, 12 µM
CC(C)C[C@H](NC(=O)[C@H](Cc1c[nH]c2ccccc12)NC(=O)[C@H](CCCNC(=N)N)NC(=O)CNC(=O)[C@H](CC(C)C)NC(=O)[C@H](CC(C)C)NC(=O)[C@H](CCCCN)NC(=O)[C@H](CO)NC(=O)[C@H](CC(C)C)NC(=O)[C@H](Cc1c[nH]c2ccccc12)NC(=O)[C@H](CCC(N)=O)NC(=O)[C@H](CC(C)C)NC(=O)[C@@H](N)CC(C)C)C(N)=O (H-LLQWLSKLLGRWL-NH2) | % | 100
CC[C@@H](C)[C@@H](NC(=O)[C@@H](CCCNC(=N)N)NC(=O)CNC(=O)[C@@H](CC(C)C)NC(=O)[C@@H](Cc1ccccc1)NC(=O)[C@@H](CCCCN)NC(=O)[C@@H](CO)NC(=O)[C@@H](Cc1ccccc1)NC(=O)[C@@H](Cc1c[nH]c2ccccc12)NC(=O)[C@@H](CCC(N)=O)NC(=O)[C@H](NC(=O)[C@H](N)Cc1ccccc1)C(C)C)C(=O)N[C@H](CC(C)C)C(N)=O | % | 88

Now examine the next entry.
Query (compound): CC[C@H](C)[C@H](NC(=O)[C@H](CCCCN)NC(=O)CNC(=O)[C@H](CC(C)C)NC(=O)[C@H](Cc1ccccc1)NC(=O)[C@H](CCCCN)NC(=O)[C@H](CO)NC(=O)[C@H](Cc1ccccc1)NC(=O)[C@H](Cc1c[nH]c2ccccc12)NC(=O)[C@H](CCC(N)=O)NC(=O)[C@@H](NC(=O)[C@@H](N)Cc1ccccc1)C(C)C)C(=O)N[C@@H](CC(C)C)C(N)=O (H-FVQWFSKFLGKIL-NH2) ; field requested: hemolysis at 40 min, 12 µM
59

###

Test system: Streptococcus pyogenes
Experiment: Antibacterial activity against Streptococcus pyogenes ATCC 21547 after 18 to 20 hrs by microbroth dilution method
Assay type: functional
Where a SMILES comes first, the peptide text is derived from it.
ATTRIBUTE_MEASURED: MIC
Write the quantity with the unit trailing the number.

COMPOUND | MIC
CC(C)C[C@H](NC(=O)[C@H](Cc1c[nH]c2ccccc12)NC(=O)[C@H](CCCNC(=N)N)NC(=O)CNC(=O)[C@H](CC(C)C)NC(=O)[C@H](CC(C)C)NC(=O)[C@H](CCCCN)NC(=O)[C@H](CO)NC(=O)[C@H](CC(C)C)NC(=O)[C@H](Cc1c[nH]c2ccccc12)NC(=O)[C@H](CCC(N)=O)NC(=O)[C@H](CC(C)C)NC(=O)[C@@H](N)CC(C)C)C(N)=O (H-LLQWLSKLLGRWL-NH2) | 6 µM

Now examine the next entry.
State its MIC on Streptococcus pyogenes: CC[C@H](C)[C@H](NC(=O)[C@H](CCCNC(=N)N)NC(=O)[C@@H]1CCCN1C(=O)[C@H](CC(C)C)NC(=O)[C@H](Cc1ccccc1)NC(=O)[C@H](CCCCN)NC(=O)[C@H](CO)NC(=O)[C@H](Cc1ccccc1)NC(=O)[C@H](Cc1c[nH]c2ccccc12)NC(=O)[C@@H]1CCCN1C(=O)[C@@H](NC(=O)[C@@H](N)Cc1ccccc1)C(C)C)C(=O)N[C@@H](CC(C)C)C(N)=O
12 µM

###

Test system: Acinetobacter baumannii
Assay: Antibacterial activity against Acinetobacter baumannii ATCC 19606 after 18 to 20 hrs by microbroth dilution method
Format: functional
Where a SMILES comes first, the peptide text is derived from it. [ ]: non-standard residue; d: D form. Orn = NCCC[C@H](N)C(=O)O
The entries below come with measured MIC values attached.
Number only, in µM; omit the unit.

COMPOUND | MEASURED_TARGET | MIC [µM]
CC[C@H](C)[C@H](NC(=O)[C@H](CCCN)NC(=O)CNC(=O)[C@H](CC(C)C)NC(=O)[C@H](Cc1ccccc1)NC(=O)[C@H](CCCCN)NC(=O)[C@H](CO)NC(=O)[C@H](Cc1ccccc1)NC(=O)[C@H](Cc1c[nH]c2ccccc12)NC(=O)[C@@H]1CCCN1C(=O)[C@@H](NC(=O)[C@@H](N)Cc1ccccc1)C(C)C)C(=O)N[C@@H](CC(C)C)C(N)=O (H-FVPWFSKFLG[Orn]IL-NH2) | Acinetobacter baumannii | 12

Now examine the next entry.
Query (compound): CC(C)C[C@H](NC(=O)[C@H](Cc1c[nH]c2ccccc12)NC(=O)[C@H](CCCNC(=N)N)NC(=O)CNC(=O)[C@H](CC(C)C)NC(=O)[C@H](CC(C)C)NC(=O)[C@H](CCCCN)NC(=O)[C@H](CO)NC(=O)[C@H](CC(C)C)NC(=O)[C@H](Cc1c[nH]c2ccccc12)NC(=O)[C@H](CCC(N)=O)NC(=O)[C@H](CC(C)C)NC(=O)[C@@H](N)CC(C)C)C(N)=O (H-LLQWLSKLLGRWL-NH2) ; field requested: MIC
6

###

Assay: Toxicity in human erythrocytes assessed as hemolysis at 1.5 uM after 40 mins
Type: cell-based, Erythrocyte
Conditions: read-out: Activity
Where a SMILES comes first, the peptide text is derived from it. [ ]: non-standard residue; d: D form. Orn = NCCC[C@H](N)C(=O)O
ATTRIBUTE_MEASURED: hemolysis at 40 min, 1.5 µM (%)
Number only, in %; omit the unit.

A selection of reference data follows.
MOLECULE | UNIT_STRING | MEASURED_VALUE
CC[C@@H](C)[C@@H](NC(=O)[C@H](N)CC(C)C)C(=O)N[C@H](CCCNC(=N)N)C(=O)NCC(=O)N[C@H](CC(C)C)C(=O)N[C@H](Cc1ccccc1)C(=O)N[C@H](CCCCN)C(=O)N[C@H](CO)C(=O)N[C@H](Cc1ccccc1)C(=O)N[C@H](Cc1c[nH]c2ccccc12)C(=O)N[C@H](CCC(N)=O)C(=O)N[C@@H](C(=O)N[C@H](Cc1ccccc1)C(N)=O)C(C)C | % | 1
CC(C)C[C@H](NC(=O)[C@H](CC(C)C)NC(=O)[C@H](CCCNC(=N)N)NC(=O)CNC(=O)[C@H](CC(C)C)NC(=O)[C@H](CC(C)C)NC(=O)[C@H](CCCCN)NC(=O)[C@H](CO)NC(=O)[C@H](CC(C)C)NC(=O)[C@H](Cc1c[nH]c2ccccc12)NC(=O)[C@H](CCC(N)=O)NC(=O)[C@H](CC(C)C)NC(=O)[C@@H](N)CC(C)C)C(N)=O (H-LLQWLSKLLGRLL-NH2) | % | 4
CC[C@H](C)[C@H](NC(=O)[C@H](CCCNC(=N)N)NC(=O)[C@H]1CCCN1C(=O)[C@H](CC(C)C)NC(=O)[C@H](Cc1ccccc1)NC(=O)[C@H](CCCCN)NC(=O)[C@H](CO)NC(=O)[C@H](Cc1ccccc1)NC(=O)[C@H](Cc1c[nH]c2ccccc12)NC(=O)[C@@H]1CCCN1C(=O)[C@@H](NC(=O)[C@@H](N)Cc1ccccc1)C(C)C)C(=O)N[C@@H](CC(C)C)C(N)=O | % | 0.4
CC[C@H](C)[C@H](NC(=O)[C@H](CCCNC(=N)N)NC(=O)CNC(=O)[C@H](CC(C)C)NC(=O)[C@H](Cc1ccccc1)NC(=O)[C@H](CCCCN)NC(=O)[C@H](CO)NC(=O)[C@H](Cc1ccccc1)NC(=O)[C@H](Cc1c[nH]c2ccccc12)NC(=O)[C@H](CCCNC(=N)N)NC(=O)[C@@H](NC(=O)[C@@H](N)Cc1ccccc1)C(C)C)C(=O)N[C@@H](CC(C)C)C(N)=O (H-FVRWFSKFLGRIL-NH2) | % | 7
CC[C@H](C)[C@H](NC(=O)[C@H](CCCNC(=N)N)NC(=O)[C@@H]1CCCN1C(=O)[C@H](CC(C)C)NC(=O)[C@H](Cc1ccccc1)NC(=O)[C@H](CCCCN)NC(=O)[C@H](CO)NC(=O)[C@H](Cc1ccccc1)NC(=O)[C@H](Cc1c[nH]c2ccccc12)NC(=O)[C@@H]1CCCN1C(=O)[C@@H](NC(=O)[C@@H](N)Cc1ccccc1)C(C)C)C(=O)N[C@@H](CC(C)C)C(N)=O | % | 2

Query (molecule): CC[C@H](C)[C@H](NC(=O)[C@H](CCCN)NC(=O)CNC(=O)[C@H](CC(C)C)NC(=O)[C@H](Cc1ccccc1)NC(=O)[C@H](CCCCN)NC(=O)[C@H](CO)NC(=O)[C@H](Cc1ccccc1)NC(=O)[C@H](Cc1c[nH]c2ccccc12)NC(=O)[C@@H]1CCCN1C(=O)[C@@H](NC(=O)[C@@H](N)Cc1ccccc1)C(C)C)C(=O)N[C@@H](CC(C)C)C(N)=O (H-FVPWFSKFLG[Orn]IL-NH2) ; field requested: hemolysis at 40 min, 1.5 µM
0.7
